Give measured binding signal for each item. Keep answers brief.
Target: T1, UNK ZnF1-3 (human, UniProt Q9C0B0 31-174)
T1 sequence: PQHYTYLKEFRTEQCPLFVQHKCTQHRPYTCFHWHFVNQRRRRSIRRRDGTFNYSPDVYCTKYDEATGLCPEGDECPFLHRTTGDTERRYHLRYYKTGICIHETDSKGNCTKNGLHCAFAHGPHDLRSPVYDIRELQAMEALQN
Experiment: nsRBNS (natural sequence RNA bind-n-seq); RBNS binding buffer (assumed for nsRBNS): 25 mM Tris pH 7.5, 150 mM KCl, 3 mM MgCl2, 0.01% Triton X-100, 500 ug/ml BSA, 20 U/ml SUPERase-In, 4 C; UNK is unkempt and MSI1 is Musashi-1; names of the RNAs are library labels; protein concentration not given here; high values mean tight binding
Over roughly 24,000 sequences, “enrichment r” has its median near 0.99; the highest 2% begin near 3.7. The full list was thinned out, with the highest values kept by preference.

**Query** Give the measured binding signal for chr10:7433921:7433922:+_ENSMUSG00000040021_ENSMUST00000165952|mus_mus|motif|central (ssRNA) RNA: GGGAGUUCUACAGUCCGACGAUCGCUUUGUGUAUGUUAGGCAAGUGCUCUACCACUGAGCCAUAUCCUUAGCCCCGGGAAAAUGUACUUUCUUAGUGAGUACAUACACGUAAAUUAAAAAAAAAAAUUACAAACUGAAAAUAACAACAGAGGAUUGAGCAUCA
**Result** 5.64 enrichment R

**Query** Specify measured binding signal for 87419285_87419405_2552_3pUTR_ENSMUSG00000028496_ENSMUST00000078090|mouse|control|control (ssRNA) RNA: GGGAGUUCUACAGUCCGACGAUCGAAAAUCAAGGUGGCUAUUUGGUCCCCCCAGUUGGUAACUAUGUCCUGGAACUGGGAAAACAAAGAUGGAAACCAUAGACUGCAACAAGUUAAAGGACCUGGGAAGAGUUGGUGGAAAGUCAACAGAGGAUUGAGCAUCA .
**Result** 1.56 enrichment R

**Query** For the binder 193603509_193603629_2668_3pUTR_ENSMUSG00000026623_ENSMUST00000110855|mouse|control|control (ssRNA) RNA: GGGAGUUCUACAGUCCGACGAUCUAAAUCACAUGAACAAAAGGACAAAUCUUUCAAAAGGUUUCUACGAUGAACAGAAACUUGCUUGGCUUUGCCCUCUUAGAAGACGACUGGAAGAGACUGGGAAGUGUUUUUGAGCUGCUGCAACAGAGGAUUGAGCAUCA , report binding signal.
**Result** 1.27 enrichment R

**Query** Give me measured binding signal, please, for this binder: chr10:7433921:7433922:+_ENSMUSG00000040021_ENSMUST00000165952|mus_mus|FALSE|FALSE (ssRNA) RNA: GGGAGUUCUACAGUCCGACGAUCGCUUUGUGUAUGUUAGGCAAGUGCUCUACCACUGAGCCAUAUCCUUAGCCCCUAGAAAAUGUACUUUCUUAGUGAGUACAUACACGUAAAUUAAAAAAAAAAAUUACAAACUGAAAAUAACAACAGAGGAUUGAGCAUCA
**Result** 8.06 enrichment R

**Query** Look up and state reported binding signal for chr7:117185563:117185564:+_ENSMUSG00000066232_ENSMUST00000084731|mus_mus|FALSE|FALSE (ssRNA) RNA: GGGAGUUCUACAGUCCGACGAUCGGGCUUCAGGUUCUUCCACGUAAGUGCAUGGGAAACUCCUUGAUUAAUAUAAUUUAAUGUCUGCUGUAAAACUCGAGGCGCCAUAUAUUGUUUUUCCUUGUACUGAUAUAACACUUUCAACAACAGAGGAUUGAGCAUCA
**Result** 1.59 enrichment R

**Query** Find the measured binding signal of chr16:45711415:45711416:-_ENSMUSG00000022658_ENSMUST00000096057|mus_hu|FALSE|FALSE (ssRNA) RNA: GGGAGUUCUACAGUCCGACGAUCUUAUUAGGUGCAUUCUAUAAGUUGAAGAGGAGAAUUUUUGGCAAAUAAAUAAAUAAAUAAAUAAAUAAUCAAACAGAGACUCUGGGGCCCGAGGAGCUCAGGAAAACGGAAGCGGAGUCUCAACAGAGGAUUGAGCAUCA and report it.
**Result** 13.2 enrichment R

**Query** Please supply the value of reported binding signal for the item chr17:26793470:26793471:+_ENSMUSG00000001576_ENSMUST00000167662|mus_mus|FALSE|FALSE (ssRNA) RNA: GGGAGUUCUACAGUCCGACGAUCAUUGGAAUCAGAGGAAAAAUUACAAAUGGCAGAGAAUCCAGCUACCCAUAAGAGACUAUUUAAGAAAAACAAAACCAAAACCAAACAAAAACAAAAAACCCCAAAACUUCCUACUGCAGGCAACAGAGGAUUGAGCAUCA
**Result** 3.74 enrichment R
